targetOfAssay: T1, rat IL-21R expressed on cells (rat)
T1 construct: whole, on cells; Transiently transfected CHO-PA-Dukx cells
protocolText: cell ELISA on transfected CHO cells, 13 nM IgG
Kindly supply the reported A450 at 13 nM Ab in cell ELISA values for the records listed here.
Enter your answer as a number in A450; do not include the unit.

// lookup A450 at 13 nM Ab in cell ELISA for AbS (antibody, human IgG1, V domains shown, Human IgG1 triple-mutant (L234A, L235A, G237A); Framework limits derived; also called VHP/VL6; VHPTM/VL6) VH: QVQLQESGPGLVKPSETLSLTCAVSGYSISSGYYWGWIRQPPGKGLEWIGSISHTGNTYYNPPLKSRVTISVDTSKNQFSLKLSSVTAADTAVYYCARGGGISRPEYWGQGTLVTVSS VL: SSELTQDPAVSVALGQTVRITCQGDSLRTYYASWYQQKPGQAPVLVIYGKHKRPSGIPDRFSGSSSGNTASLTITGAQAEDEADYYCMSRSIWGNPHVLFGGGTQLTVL
1.17

// A450 at 13 nM Ab in cell ELISA lookup, key: AbF (antibody, human IgG1, V domains shown, Full-length human IgG1 / human lambda, transient, conditioned medium; Framework limits derived; also called VHP/VL17) VH: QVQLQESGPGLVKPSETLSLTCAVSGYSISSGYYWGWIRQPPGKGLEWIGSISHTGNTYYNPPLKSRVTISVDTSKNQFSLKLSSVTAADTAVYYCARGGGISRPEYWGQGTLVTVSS VL: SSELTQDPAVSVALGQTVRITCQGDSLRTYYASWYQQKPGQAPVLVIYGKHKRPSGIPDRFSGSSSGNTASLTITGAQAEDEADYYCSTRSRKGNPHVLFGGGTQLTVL
1

Endpoint output: A450 at 13 nM Ab in cell ELISA of AbD (antibody, human IgG1, V domains shown, Full-length human IgG1 / human lambda, transient, conditioned medium; Framework limits derived; also called VHP/VL13) VH: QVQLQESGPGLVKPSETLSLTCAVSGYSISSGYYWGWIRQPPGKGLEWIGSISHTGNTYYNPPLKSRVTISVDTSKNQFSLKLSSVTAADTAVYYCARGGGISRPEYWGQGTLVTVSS VL: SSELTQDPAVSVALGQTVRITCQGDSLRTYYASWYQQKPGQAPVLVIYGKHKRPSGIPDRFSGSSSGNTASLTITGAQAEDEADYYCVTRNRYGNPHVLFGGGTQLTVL . Value?
0.874
